target: TRPV3 I659A (Mus musculus, UniProt Q8K424, I659A); experiment: Whole-cell recording of TRPV3 mutant I659A in HEK 293T cells; conditions: 2-APB (1 mM)-evoked, –60 mV, read-out: IC50 for inhibition of TRPV3 mutant
Sequence (Q8K424 whole entry I659A): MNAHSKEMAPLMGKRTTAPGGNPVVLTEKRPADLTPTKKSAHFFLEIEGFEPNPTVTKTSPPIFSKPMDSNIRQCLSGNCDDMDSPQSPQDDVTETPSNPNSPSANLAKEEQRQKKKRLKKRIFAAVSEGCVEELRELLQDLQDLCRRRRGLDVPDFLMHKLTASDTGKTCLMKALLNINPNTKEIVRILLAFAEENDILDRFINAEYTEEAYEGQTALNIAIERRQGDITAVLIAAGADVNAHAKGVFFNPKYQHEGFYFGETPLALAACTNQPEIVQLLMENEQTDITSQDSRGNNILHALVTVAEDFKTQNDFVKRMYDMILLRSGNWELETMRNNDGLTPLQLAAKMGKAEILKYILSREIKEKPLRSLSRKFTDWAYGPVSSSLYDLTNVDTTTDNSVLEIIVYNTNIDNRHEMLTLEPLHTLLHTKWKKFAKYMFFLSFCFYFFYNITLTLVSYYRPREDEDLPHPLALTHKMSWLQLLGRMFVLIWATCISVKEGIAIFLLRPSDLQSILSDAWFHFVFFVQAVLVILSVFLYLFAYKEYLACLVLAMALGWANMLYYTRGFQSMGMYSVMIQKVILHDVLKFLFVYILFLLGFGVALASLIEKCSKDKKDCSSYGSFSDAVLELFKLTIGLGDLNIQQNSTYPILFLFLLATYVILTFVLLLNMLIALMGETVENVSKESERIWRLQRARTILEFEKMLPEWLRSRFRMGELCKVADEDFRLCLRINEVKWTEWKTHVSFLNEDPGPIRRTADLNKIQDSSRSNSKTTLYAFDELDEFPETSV
METRIC_NAME: pIC50
Recall that pIC50 is obtained by taking minus log10 of the concentration measured in molar.

I'm curious: which pIC50 was measured for CCCCOc1ccc(C(=O)CCN2CCCCC2)cc1 tested on TRPV3 I659A (Mus musculus, UniProt Q8K424, I659A)?
6.25

* * *

molecular target: TRPV3 I674A (Mus musculus, UniProt Q8K424, I674A); construct: expressed in transfected cells; host or cells: HEK 293T; test: Whole-cell recording of TRPV3 mutant I674A in HEK 293T cells; type: cell-based; details: 2-APB (1 mM)-evoked, –60 mV, read-out: IC50 for inhibition of TRPV3 mutant
Sequence (Q8K424 whole entry I674A): as the sequence (Q8K424 whole entry I659A) above, with A659I, I674A counted along it
METRIC_NAME: pIC50
Scale note: pIC50 = -log10(concentration in M).

Suppose we examine the molecule CCCCOc1ccc(C(=O)CCN2CCCCC2)cc1 ; what pIC50 value has been reported?
4.82
